src = patent US9718816B2

target: CARM1 (Homo sapiens); construct: Flag-CARM1-His; experiment: CARM1 enzyme assay on peptide substrate (3H-SAM Flashplate); details: CARM1 0.25 nM, 3H-SAM 30 nM, peptide 250 nM, 30 min preincubation; read-out: Biochem IC50
Sequence (Q86X55 1-585 isoform Q86X55-1): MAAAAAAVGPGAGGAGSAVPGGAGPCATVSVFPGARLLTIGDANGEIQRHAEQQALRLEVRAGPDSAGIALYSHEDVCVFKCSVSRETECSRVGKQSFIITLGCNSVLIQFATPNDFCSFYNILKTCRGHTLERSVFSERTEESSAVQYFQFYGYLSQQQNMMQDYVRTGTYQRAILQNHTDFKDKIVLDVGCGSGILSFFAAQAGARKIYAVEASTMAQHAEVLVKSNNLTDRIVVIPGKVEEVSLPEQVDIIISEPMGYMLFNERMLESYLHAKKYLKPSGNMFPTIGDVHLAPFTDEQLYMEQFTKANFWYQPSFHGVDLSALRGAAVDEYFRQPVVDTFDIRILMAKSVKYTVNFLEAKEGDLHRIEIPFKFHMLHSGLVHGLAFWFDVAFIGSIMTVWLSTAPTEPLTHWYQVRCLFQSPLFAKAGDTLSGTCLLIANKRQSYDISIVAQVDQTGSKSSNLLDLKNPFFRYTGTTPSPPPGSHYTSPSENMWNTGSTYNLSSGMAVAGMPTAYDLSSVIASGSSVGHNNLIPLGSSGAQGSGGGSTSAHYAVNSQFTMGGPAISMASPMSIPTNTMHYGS
pIC50: −log10 of the molar value.
PARAMETER: pIC50

Query: Please look up its pIC50: CC(C)n1ncc2c(N(C)C3CCOCC3)cc(-c3cccc(OCC(O)CN)c3)nc21 (stereo not drawn) [Example 28-1]
Result: 6.00 to 7.00

Query: Consider next the compound CC(C)n1ncc2c(NCc3cccc(O)c3)cc(-c3cccc(OCC(O)CN)c3)nc21 (stereo not drawn) [Example 35-1] in the same way.
Result: 6.00 to 7.00

Query: Consider next the compound CNCC(O)COc1cccc(-c2cc(NCc3cnn(C)c3C)c3cnn(C(C)C)c3n2)c1 (stereo not drawn) [Example 46-1] in the same way.
Result: > 7.00

Query: Consider next the compound CNCC(O)COc1cccc(-c2cc(N(C)CC3CCOCC3)c3cnn(C(C)C)c3n2)c1 (stereo not drawn) [Example 48-1] in the same way.
Result: > 7.00

Query: Consider next the compound CC(C)n1ncc2c(NC(=O)OCc3ccccc3)cc(-c3cccc(OCC(O)CN)c3)nc21 (stereo not drawn) [Example 51-1] in the same way.
Result: > 7.00

Query: Consider next the compound CC(C)n1ncc2c(NS(=O)(=O)N(C)C)cc(-c3cccc(OCC(O)CN)c3)nc21 (stereo not drawn) [Example 36-1] in the same way.
Result: > 7.00

Query: Consider next the compound CNCC(O)COc1cccc(-c2cc(Nc3ccccn3)c3cnn(C(C)C)c3n2)c1 (stereo not drawn) [Example 24-1] in the same way.
Result: 6.00 to 7.00

Query: Consider next the compound CNCC(O)COc1cccc(-c2cc(NCC3CCOCC3)c3cnn(C(C)C)c3n2)c1 (stereo not drawn) [Example 41-1] in the same way.
Result: > 7.00

Query: Consider next the compound CNCC(O)COc1cccc(-c2cc(NCc3cnc4ccccn34)c3cnn(C(C)C)c3n2)c1 (stereo not drawn) [Example 53-1] in the same way.
Result: > 7.00

Query: Consider next the compound CC(C)n1ncc2c(N[C@H]3CO[C@@H]4OCC[C@@H]43)cc(-c3cccc(OCC(O)CN)c3)nc21 (stereo partly drawn) [Example 38-1] in the same way.
Result: > 7.00

Query: Consider next the compound CNCC(O)COc1cccc(-c2cc(NCCCCNC(=O)c3ccn(C)n3)c3cnn(C(C)C)c3n2)c1 (stereo not drawn) [Example 62-1] in the same way.
Result: 6.00 to 7.00

Query: Consider next the compound CNCC(O)COc1cccc(-c2cc(NCC(=O)OC)c3cnn(C(C)C)c3n2)c1 (stereo not drawn) [Example 23-1] in the same way.
Result: 6.00 to 7.00

Query: Consider next the compound CC(C)n1ncc2c(N3CCOCC3)cc(-c3cccc(OCC(O)CN)c3)nc21 (stereo not drawn) [Example 3-1] in the same way.
Result: > 7.00

Query: Consider next the compound CC(C)n1ncc2c(NCc3cnc4ccccn34)cc(-c3cccc(OCC(O)CN)c3)nc21 (stereo not drawn) [Example 50-1] in the same way.
Result: > 7.00

Query: Consider next the compound COC(=O)Nc1cc(-c2cccc(OCC(O)CN)c2)nc2c1cnn2C(C)C (stereo not drawn) [Example 10-1] in the same way.
Result: 6.00 to 7.00

Query: Consider next the compound CNCC(O)COc1cccc(-c2cc(N3CCOCC3)c3cnn(C(C)C)c3n2)c1 (stereo not drawn) [Example 20-1] in the same way.
Result: > 7.00

Query: Consider next the compound CNCC(O)COc1cccc(-c2cc(NS(=O)(=O)N(C)C)c3cnn(C(C)C)c3n2)c1 (stereo not drawn) [Example 45-1] in the same way.
Result: > 7.00

Query: Consider next the compound CNCC(O)COc1cccc(-c2cc(N3CCC(C(=O)OC)CC3)c3cnn(C(C)C)c3n2)c1 (stereo not drawn) [Example 52-1] in the same way.
Result: > 7.00
